Target Or System: Maternal embryonic leucine zipper kinase (Homo sapiens)
Sequence (Q14680 whole entry, looked up): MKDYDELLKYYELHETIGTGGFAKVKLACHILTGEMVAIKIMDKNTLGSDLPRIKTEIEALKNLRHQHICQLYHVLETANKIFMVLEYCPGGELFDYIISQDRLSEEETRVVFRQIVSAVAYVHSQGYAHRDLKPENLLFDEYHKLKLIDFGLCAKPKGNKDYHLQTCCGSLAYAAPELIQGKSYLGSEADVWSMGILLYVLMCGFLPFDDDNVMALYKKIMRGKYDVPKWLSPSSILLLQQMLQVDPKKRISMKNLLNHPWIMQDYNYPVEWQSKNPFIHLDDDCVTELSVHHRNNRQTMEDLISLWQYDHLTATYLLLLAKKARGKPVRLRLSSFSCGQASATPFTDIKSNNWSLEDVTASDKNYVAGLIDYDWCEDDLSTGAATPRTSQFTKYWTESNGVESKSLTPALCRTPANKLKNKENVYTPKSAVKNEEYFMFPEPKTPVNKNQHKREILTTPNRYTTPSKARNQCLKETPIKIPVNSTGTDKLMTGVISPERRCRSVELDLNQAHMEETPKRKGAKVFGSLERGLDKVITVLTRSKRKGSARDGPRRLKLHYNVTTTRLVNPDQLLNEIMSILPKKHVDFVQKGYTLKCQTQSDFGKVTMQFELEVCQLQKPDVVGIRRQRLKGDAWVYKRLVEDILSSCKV
Assay Remarks: Inhibition of MELK (unknown origin) at 100 uM preincubated for 1 hr followed by substrate addition and measured after 1 hr by Z-lyte assay relative to control
Test Context: time 2.0 hrs
Endpoint: inhibition (%)

Molecule	Target Or System	inhibition (%)
C=Cc1cc(C(F)(F)F)cc(C(F)(F)F)c1	Maternal embryonic leucine zipper kinase (Homo sapiens)	44
NC(=O)/C=C/c1cc(C(F)(F)F)cc(C(F)(F)F)c1	Maternal embryonic leucine zipper kinase (Homo sapiens)	52
Fc1cc(C(F)(F)F)cc(C(F)(F)F)c1	Maternal embryonic leucine zipper kinase (Homo sapiens)	73
N#Cc1cc(C(F)(F)F)cc(C(F)(F)F)c1	Maternal embryonic leucine zipper kinase (Homo sapiens)	15
CC(CBr)C(=O)Nc1cc(C(F)(F)F)cc(C(F)(F)F)c1 (configuration not stated)	Maternal embryonic leucine zipper kinase (Homo sapiens)	84

P = C#Cc1cc(C(F)(F)F)cc(C(F)(F)F)c1
Q = O=C1C=CC(=O)N1Cc1cc(C(F)(F)F)cc(C(F)(F)F)c1
For the pair P and Q , which member has the lower inhibition number? Response format: the label of the selected entry.
P
(P: 24%, Q: 101%)

I = FC(F)(F)c1cc(C2CO2)cc(C(F)(F)F)c1 (configuration not stated)
II = C#CC(=O)Oc1cc(C(F)(F)F)cc(C(F)(F)F)c1
Select the item with the higher value of inhibition from the options I and II listed. Response format: the label of the selected entry.
II
(II: 33%, I: 11%)

a = CC(C)(C)OC(=O)N/N=C\c1cc(C(F)(F)F)cc(C(F)(F)F)c1
b = FC(F)(F)c1cc(CN=C=S)cc(C(F)(F)F)c1
c = O=Cc1cc(C(F)(F)F)cc(C(F)(F)F)c1
Rank ascending by inhibition. Ranked list of labels, please, in the requested order.
c, a, b
(c: 11%, a: 48%, b: 100%)

---

Assay Remarks: Thiol reactivity of compound assessed as half life by LC-MS analysis
Type: physicochemical
Endpoint: half-life

Example compounds with recorded half-life:
Compound	Endpoint	Result Value
CCOC(=O)/C=C/c1cc(C(F)(F)F)cc(C(F)(F)F)c1	half-life	> 72 h
O=Cc1cc(C(F)(F)F)cc(C(F)(F)F)c1	half-life	> 72 h
O=C1C=CC(=O)N1Cc1cc(C(F)(F)F)cc(C(F)(F)F)c1	half-life	< 0.05 h
CC(Cl)C(=O)Nc1cc(C(F)(F)F)cc(C(F)(F)F)c1 (stereo unspecified)	half-life	> 72 h
C=CC(=O)Oc1cc(C(F)(F)F)cc(C(F)(F)F)c1	half-life	< 0.05 h
N#C/C=C/c1cc(C(F)(F)F)cc(C(F)(F)F)c1	half-life	4 h
FC(F)(F)c1cc(N=C=S)cc(C(F)(F)F)c1	half-life	< 0.05 h
COC(=O)C#Cc1cc(C(F)(F)F)cc(C(F)(F)F)c1	half-life	0.3 h
Fc1cc(C(F)(F)F)cc(C(F)(F)F)c1	half-life	11 h
NC(=O)/C=C/c1cc(C(F)(F)F)cc(C(F)(F)F)c1	half-life	> 72 h

The record that follows has no half-life shown yet.
The measured half-life associated with CC(CBr)C(=O)Nc1cc(C(F)(F)F)cc(C(F)(F)F)c1 (stereo unspecified) reads < 0.05 h
